// reported pIC50 per item
# experimental.target: NRAS G12C (Homo sapiens (Human), UniProt P01111+P62937, G12C)
# Sequence (P01111 whole entry G12C): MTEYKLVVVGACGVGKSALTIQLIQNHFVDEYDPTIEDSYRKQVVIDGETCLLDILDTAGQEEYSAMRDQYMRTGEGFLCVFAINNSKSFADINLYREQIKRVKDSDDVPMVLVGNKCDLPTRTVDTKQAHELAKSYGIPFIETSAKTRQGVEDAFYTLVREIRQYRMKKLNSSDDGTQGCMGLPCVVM
# Sequence (P62937 whole entry): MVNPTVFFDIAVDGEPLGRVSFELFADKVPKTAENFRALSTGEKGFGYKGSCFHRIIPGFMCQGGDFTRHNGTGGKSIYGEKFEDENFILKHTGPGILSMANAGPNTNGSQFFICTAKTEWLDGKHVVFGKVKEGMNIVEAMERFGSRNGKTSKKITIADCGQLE
# protocol.description: Ras-Raf disruption/FRET/MOA assay (BRAF RBD, Cyclophilin A)
# Type: biochemical
# measurement.setup: read-out: NRAS G12C FRET data IC50
pIC50: −log10 of the molar value.

In: What measured pIC50 is associated with CCn1c(-c2cccnc2[C@H](C)OC)c2c3cc(ccc31)-c1csc(n1)C[C@H](NC(=O)[C@H](C(C)C)N(C)C(=O)N1C[C@H]3COC[C@H]3C1)C(=O)N1CCC[C@H](N1)C(=O)OCC(C)(C)C2 [Compound A312] on NRAS G12C (Homo sapiens (Human), UniProt P01111+P62937, G12C)?
Out: 7.00 to 8.00

In: // query: CCn1c(-c2cccnc2[C@H](C)OC)c2c3cc(ccc31)-c1cc(O)cc(c1)C[C@H](NC(=O)[C@H](C(C)C)N(C)C(=O)[C@@H]1OCC[C@@H]1c1ccccc1)C(=O)N1CCC[C@H](N1)C(=O)OCC(C)(C)C2 [Compound A415]
Out: 7.00 to 8.00

In: Same question, CCn1c(-c2cccnc2[C@H](C)OC)c2c3cc(ccc31)-c1cc(O)cc(c1)C[C@H](NC(=O)[C@H](C(C)C)N(C)C(=O)C1CC3(CCOCC3)CO1)C(=O)N1CCC[C@H](N1)C(=O)OCC(C)(C)C2 (stereo partly shown) [Compound A413] this time
Out: 7.00 to 8.00

In: // next record CCn1c(-c2cccnc2[C@H](C)OC)c2c3cc(ccc31)-c1cc(O)cc(c1)C[C@H](NC(=O)[C@H](C(C)C)N(C)C(=O)C1Cc3nccn3C1)C(=O)N1CCC[C@H](N1)C(=O)OCC(C)(C)C2 (stereo partly shown) [Compound A249]
Out: 7.00 to 8.00

In: Also check CCn1c(-c2cccnc2[C@H](C)OC)c2c3cc(ccc31)-c1cc(O)cc(c1)C[C@H](NC(=O)[C@H](C(C)C)N(C)C(=O)C1CCNC13CCC3)C(=O)N1CCC[C@H](N1)C(=O)OCC(C)(C)C2 (stereo partly shown) [Compound A393]
Out: 7.00 to 8.00

In: Now give it for CCn1c(-c2cccnc2[C@H](C)OC)c2c3cc(ccc31)-c1csc(n1)C[C@H](NC(=O)[C@H](C(C)C)N(C)C(=O)[C@@H]1[C@@H]3CN(C)C[C@@H]31)C(=O)N1CCC[C@H](N1)C(=O)OCC(C)(C)C2 [Compound A447] too.
Out: 6.00 to 7.00

Others:
In: Identify the measured pIC50 of CCn1c(-c2cccnc2[C@H](C)OC)c2c3cc(ccc31)-c1csc(n1)C[C@H](NC(=O)[C@H](C(C)C)N(C)C(=O)N1CC([C@@H](C)OC)C1)C(=O)N1CCC[C@H](N1)C(=O)OCC(C)(C)C2 [Compound A278] for NRAS G12C (Homo sapiens (Human), UniProt P01111+P62937, G12C).
Out: 7.00 to 8.00

In: Okay, and CCn1c(-c2cccnc2[C@H](C)OC)c2c3cc(ccc31)-c1csc(n1)C[C@H](NC(=O)[C@H](C(C)C)N(C)C(=O)N1CC[C@H]1CN)C(=O)N1CCC[C@H](N1)C(=O)OCC(C)(C)C2 [Compound A463] ?
Out: 6.00 to 7.00

In: Another: CCn1c(-c2cccnc2[C@H](C)OC)c2c3cc(ccc31)-c1cc(O)cc(c1)C[C@H](NC(=O)[C@H](C(C)C)N(C)C(=O)C1CNCCO1)C(=O)N1CCC[C@H](N1)C(=O)OCC(C)(C)C2 (stereo partly shown) [Compound A229]
Out: 7.00 to 8.00

In: For CCn1c(-c2cccnc2[C@H](C)OC)c2c3cc(ccc31)-c1cc(cc3nc[nH]c13)C[C@H](NC(=O)[C@H](C(C)C)N(C)C(C)=O)C(=O)N1CCC[C@H](N1)C(=O)OCC(C)(C)C2 [Compound A153] then?
Out: < 5.00

====

# experimental.target: KRAS G12S (Homo sapiens (Human), UniProt P01116+P62937, G12S)
# Sequence (P01116 other isoform, or with tags, fused parts or gaps G12S, one chain of several): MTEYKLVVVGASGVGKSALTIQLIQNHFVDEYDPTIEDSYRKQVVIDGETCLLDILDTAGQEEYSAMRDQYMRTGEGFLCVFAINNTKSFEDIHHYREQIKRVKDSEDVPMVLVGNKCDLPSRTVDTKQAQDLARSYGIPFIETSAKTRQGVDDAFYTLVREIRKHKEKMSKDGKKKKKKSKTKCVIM
# protocol.description: Ras-Raf disruption/FRET/MOA assay (BRAF RBD, Cyclophilin A)
# Type: biochemical
# measurement.setup: read-out: KRAS G12S FRET IC50
IC50 overview

Example results:
In: Item under review: CCn1c(-c2cccnc2[C@H](C)OC)c2c3cc(ccc31)-c1cccc(c1)C[C@H](NC(=O)[C@H](C(C)C)N(C)C(=O)[C@H]1CCNC1)C(=O)N1CCC[C@H](N1)C(=O)OCC(C)(C)C2 [Compound A119] . Reported IC50?
Out: 0.1 to 1 µM

In: // repeat for CCn1c(-c2cccnc2[C@H](C)OC)c2c3cc(ccc31)-c1cc(O)cc(c1)C[C@H](NC(=O)[C@H](C(C)C)N(C)C(=O)C1(C(=O)O)CC1)C(=O)N1CCC[C@H](N1)C(=O)OCC(C)(C)C2 [Compound A150] and report
Out: > 10 µM

In: Repeat with CCn1c(-c2cccnc2[C@H](C)OC)c2c3cc(ccc31)-c1csc(n1)C[C@H](NC(=O)[C@H](C(C)C)N(C)C(=O)N1CC([C@H](C)N(C)C)C1)C(=O)N1CCC[C@H](N1)C(=O)OCC(C)(C)C2 [Compound A538]
Out: 0.1 to 1 µM

***
In: Entry CCn1c(-c2cnccc2COC)c2c3cc(ccc31)-c1cc(O)cc(c1)C[C@H](NC(=O)[C@H](C(C)C)N(C)C(=O)[C@@H]1CNC[C@@H]1C(F)(F)F)C(=O)N1CCC[C@H](N1)C(=O)OCC(C)(C)C2 [Compound A79] has what IC50?
Out: 0.1 to 1 µM

In: What do you get for CCn1c(-c2cccnc2[C@H](C)OC)c2c3cc(ccc31)-c1csc(n1)C[C@H](NC(=O)[C@H](C(C)C)N(C)C(=O)N1CC(S(=O)(=O)N(C)C)C1)C(=O)N1CCC[C@H](N1)C(=O)OCC(C)(C)C2 [Compound A551] ?
Out: 0.1 to 1 µM

In: Entry CCn1c(-c2cccnc2[C@H](C)OC)c2c3cc(ccc31)-c1cc(cc(S(C)(=O)=O)c1)C[C@H](NC(=O)[C@H](C(C)C)N(C)C(C)=O)C(=O)N1CCC[C@H](N1)C(=O)OCC(C)(C)C2 [Compound A154] please
Out: > 10 µM

In: Now give it for CCn1c(-c2cccnc2[C@H](C)OC)c2c3cc(ccc31)-c1csc(n1)C[C@H](NC(=O)[C@H](C(C)C)N(C)C(=O)N1CC(CN(C)C)C1)C(=O)N1CCC[C@H](N1)C(=O)OCC(C)(C)C2 [Compound A576] too.
Out: 0.1 to 1 µM

In: Another compound to look at: CCn1c(-c2cccnc2[C@H](C)OC)c2c3cc(ccc31)-c1cc(O)cc(c1)C[C@H](NS(=O)(=O)N1CCC1)C(=O)N1CCC[C@H](N1)C(=O)OCC(C)(C)C2 [Compound A189]
Out: > 10 µM

In: // repeat for CCn1c(-c2cccnc2[C@H](C)OC)c2c3cc(ccc31)-c1csc(n1)C[C@H](NC(=O)[C@H](C(C)C)N(C)C(=O)N1CCC[C@H](N(C)C)CC1)C(=O)N1CCC[C@H](N1)C(=O)OCC(C)(C)C2 [Compound A493] and report
Out: 0.1 to 1 µM

In: Ok, now CCn1c(-c2cnccc2COC)c2c3cc(ccc31)-c1cc(O)cc(c1)C[C@H](NC(=O)[C@H](C(C)C)N1CCCC1=O)C(=O)N1CCC[C@H](N1)C(=O)OCC(C)(C)C2 [Compound A40]
Out: 0.1 to 1 µM

In: Likewise for CCn1c(-c2cccnc2[C@H](C)OC)c2c3cc(ccc31)-c1cccc(c1)C[C@H](NC(=O)[C@H](C(C)C)N(C)C(=O)N1CC(OC)C1)C(=O)N1CCC[C@H](N1)C(=O)OCC(C)(C)C2 [Compound A355] ?
Out: 1 to 10 µM

In: For CCn1c(-c2cccnc2[C@H](C)OC)c2c3cc(ccc31)-c1csc(n1)C[C@H](NC(=O)[C@H](C(C)C)N(C)C(=O)N1CCCC3(CN(C)C3)C1)C(=O)N1CCC[C@H](N1)C(=O)OCC(C)(C)C2 [Compound A589] then?
Out: 0.1 to 1 µM

In: What about this compound? CCn1c(-c2cccnc2[C@H](C)OC)c2c3cc(ccc31)-c1cc(O)cc(c1)C[C@H](NC(=O)C(C)=C(C)C)C(=O)N1CCC[C@H](N1)C(=O)OCC(C)(C)C2 [Compound A398]
Out: 1 to 10 µM

In: Next record, please: CCn1c(-c2cccnc2[C@H](C)OC)c2c3cc(ccc31)-c1cc(O)cc(c1)C[C@H](NC(=O)[C@H](C(C)C)N(C)C(=O)[C@@H]1OCC[C@H]1c1ccccc1)C(=O)N1CCC[C@H](N1)C(=O)OCC(C)(C)C2 [Compound A584]
Out: 0.01 to 0.1 µM

In: Record: CCn1c(-c2cccnc2[C@H](C)OC)c2c3cc(ccc31)-c1csc(n1)C[C@H](NC(=O)[C@H](C(C)C)N(C)C(=O)N1CC3(CC(N(C)C(C)C)C3)C1)C(=O)N1CCC[C@H](N1)C(=O)OCC(C)(C)C2 [Compound A485]
Out: 0.1 to 1 µM
